# PROTOCOL_TEXT: TOR pathway RPL19A-GFP modulators, concentration series – cell-based, S. cerevisiae, flow cytometry, MLPCN hits, dose response (AID 2740);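 note: background is signal of the same compound in parental non-GFP s288c yeast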
# TEST_CONTEXT: S. cerevisiae RPL19A-GFP strain, flow cytometry fluorescence, 3 h; at 33 µM (top of the series)
# GFP fluorescence, lower = active (kMESF (background-subtracted)) per record follows
ASSAY_ENDPOINT: GFP fluorescence, lower = active (kMESF (background-subtracted))

* CCOC(=O)CS(=O)(=O)c1nc(-c2ccccc2)cc(C(F)(F)F)n1 | 44.1
* COc1ccc(-c2cc3cc(C(=O)O)ccn3c2C(=O)c2ccccc2)cc1 | 43.5
* Cc1ccc(C(=O)NNC(=S)NC(=O)c2ccco2)cc1 | 49.1
* CC1=C(C)/C(=N\OS(=O)(=O)c2ccc(C)cc2)C=CC1=O | 16.9
* COC(=O)/C(=C/c1c[nH]c2ccccc12)[N+](=O)[O-] | 42.8
* COc1cc(NC(=O)c2ccccc2[N+](=O)[O-])ccc1NC(=O)c1cc2ccccc2o1 | 39.2
* CCc1ccc(C(=O)/C=C/c2ccc([N+](=O)[O-])o2)cc1 | 48.7
* Cc1ccc(C)c(/C=C/C(=O)c2ccccc(=O)c2O)c1 | 15.8
* Cc1ccccc1N=Nc1ccc(O)c2ncccc12 | 36.9
* C=CCOc1ccc(C(=O)/C=C2/C(=O)Nc3ccccc32)cc1 | 37.9
* CC1=CC(=O)C(C(C)C)=C/C1=N/OS(=O)(=O)c1ccccc1 | 23.9
* O=C1C=CC(=O)N1c1ccc(OC(F)F)cc1 | 14.7
* O=C(/C=C/c1ccnc2ccccc12)c1cccs1 | 38
* CC1(C)OC(c2ccccc2)=C/C(=C/C=C2C(=O)NC(=S)NC2=O)O1 | 37
* O=C(NCc1ccc2c(c1)OCO2)c1nc(S(=O)(=O)Cc2ccccc2)ncc1Cl | 43.5
* Cc1c(N2C(=O)/C(=C\c3ccccc3O)SC2=S)c(=O)n(-c2ccccc2)n1C | 38.7
* CCN(CC(=O)NC(C)(C)C)C(=O)COc1c(Cl)cc(Cl)c2ccc(C)nc12 | 50.3
* O=C1/C(=C\c2ccc(O)c(O)c2)SC(=S)N1Cc1ccccc1 | 1.52
* COc1ccc(N2CCN(C(=O)c3ccc(Br)cc3)CC2)c([N+](=O)[O-])c1 | 47.4
* O=C(NC(=S)Nc1ccc2oc(=O)ccc2c1)c1cccc(Cl)c1 | 37.2
* O=C1C2C3C=CC(CO)(O3)C2C(=O)N1c1ccccc1-c1ccccc1 (centres undefined) | 20.9
* CC1=C(C)/C(=N\OS(=O)(=O)c2ccccc2)C=CC1=O | 24.9
* O=C(O)c1ccc(COc2ccccc2C=C2C(=O)c3ccccc3C2=O)cc1 | 38.9
* O=C(Oc1oc(-c2ccco2)nc1C=Nc1ccccc1)c1ccco1 | 38.5
* COc1cccc(/C=C2\C(=O)N(c3cccc(C)c3)C(=O)c3ccccc32)c1 | 42.4
* COC(=O)CCCC1=CC2=CC(=O)C(C)(OC(=O)CCc3ccccc3)C(=O)C2=CO1 (centres undefined) | 42.8
* CCN1C(=O)/C(=C\C(=O)c2cccs2)c2cc(Br)ccc21 | 34.5
* Cc1nn2c(NCc3ccccn3)c3c(nc2c1-c1ccccc1)CCC3 | 44.3
* Oc1c(Br)cc(Br)cc1C=Nc1ccc2c(c1)OCO2 | 40
* CN(C)c1ccc(N=Cc2nc(-c3ccccc3)oc2OC(=O)c2cccc(Cl)c2)cc1 | 44.1
* Cc1cccc(/C=C/C(=O)c2ccc([N+](=O)[O-])o2)c1 | 16.1
* O=C1N(c2ccccc2C(F)(F)F)O[C@]1(c1ccccc1)C1CCCCC1 | 36.4
* Cc1[nH][nH]c(=O)c1C(c1ccc(-c2ccc(Cl)cc2)o1)c1c(C)[nH][nH]c1=O | 41.2
* Oc1c(CN2CCN(c3ccccc3)CC2)cc(Br)c2cccnc12 | 38.4
* CC(Oc1cc2oc(=O)c3c(c2cc1Cl)CCC3)C(=O)NCCN1CCOCC1 (centres undefined) | 37.8
* Nc1nc2ncc(CNc3ccc(C(=O)N[C@@H](CCC(=O)O)C(=O)O)cc3)nc2c(=O)[nH]1 | 37
* COc1ccc(C(=O)/C=C2/C(=O)Nc3ccccc32)cc1OC | 43.1
* O=C(C#Cc1cccc([N+](=O)[O-])c1)c1ccccc1 | 41.3
* Oc1ccc(CNc2ccccc2)c2cccnc12 | 42.2
* Oc1c(Br)cc(Br)cc1C=Nc1ccc2[nH]ncc2c1 | 36
* O=C(NOC(=O)c1ccccc1)c1ccccc1 | 38.1
* COc1cc(/C=C2/C(=O)c3cccc([N+](=O)[O-])c3C2=O)c(Br)cc1O | 43.9
* Cc1cccc(NC(c2ccc(C)s2)c2ccc3ccc(C)nc3c2O)n1 (centres undefined) | 31.2
* Cc1cccc(OCCN2CSC(=S)N(C)C2)c1 | 40.5
